Hello, the source for this data is ChEMBL document CHEMBL2169772, in case you need it.

TARGET: Heat shock protein HSP90 (Homo sapiens, UniProt P07900+P08238)
ASSAY: Inhibition of human HSP90 using BODIPY labelled geldanamycin as substrate by fluorescence polarization assay
Format: protein assay
METRIC NAME: IC50 (nM)

Consider the worked cases shown below.
[[record]]
smiles_data = "CN1CCOc2cc(Br)c(Sc3nc4c(N)ncnc4n3CCC3CCN(C=O)CC3)cc21"
target = "Heat shock protein HSP90 (Homo sapiens, UniProt P07900+P08238)"
metric_name = "IC50"
numeric_value = 310

[[record]]
smiles_data = "Nc1ncnc2c1nc(Sc1cc3c(cc1Br)OCO3)n2CCC1CCN(C=O)CC1"
target = "Heat shock protein HSP90 (Homo sapiens, UniProt P07900+P08238)"
metric_name = "IC50"
numeric_value = 150

[[record]]
smiles_data = "Nc1ncnc2c1nc(Sc1cc3c(cc1Cl)OCO3)n2CCC1CCN(C=O)CC1"
target = "Heat shock protein HSP90 (Homo sapiens, UniProt P07900+P08238)"
metric_name = "IC50"
numeric_value = 210

[[record]]
smiles_data = "Nc1ncnc2c1nc(Sc1cc3c(cc1Br)OCO3)n2CCc1ccccc1F"
target = "Heat shock protein HSP90 (Homo sapiens, UniProt P07900+P08238)"
metric_name = "IC50"
numeric_value = 30

[[record]]
smiles_data = "C[C@H](O)C(=O)N1CCC(CCn2c(Sc3cc4c(cc3Cl)OCO4)nc3c(N)ncnc32)CC1"
target = "Heat shock protein HSP90 (Homo sapiens, UniProt P07900+P08238)"
metric_name = "IC50"
numeric_value = 650


[P] Nc1ncnc2c1nc(Sc1cc3c(cc1Br)C(=O)CC3)n2CCC1CCN(C=O)CC1
[Q] C#CCN1CCC(CCn2c(Sc3cc4c(cc3Br)OCO4)nc3c(N)ncnc32)CC1
Prompt line: Lower value of IC50 belongs to which: P or Q ? Output the label that corresponds to your choice.
Response line: P
(P: 60 nM, Q: 110 nM)
